# Target entity: T1, hGITR.mmh (human)
# T1 construct: soluble monomeric construct; also called human (h) GITR.mmh; monomeric human GITR
# T1 chain: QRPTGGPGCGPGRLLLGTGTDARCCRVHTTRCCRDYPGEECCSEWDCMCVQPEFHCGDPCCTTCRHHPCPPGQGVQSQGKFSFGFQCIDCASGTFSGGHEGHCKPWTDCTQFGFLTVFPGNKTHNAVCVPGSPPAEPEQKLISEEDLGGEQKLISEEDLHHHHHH
# Protocol details: SPR 37C, mAb capture
Binary call on kon with cut-off 300000 M⁻¹ s⁻¹: strictly below means y, and equality or higher means n.

Incoming: kon under 300000 M⁻¹ s⁻¹? Item: H4H14469P (antibody, human IgG4, V domains shown, human IgG4 (H4H)) VH: QVQLVESGGGVVQPGGSLRLSCAVSGFTFSDYGMHWVRQVPGAGLEWVAVIYYEGSNKYYADSVKGRFTISRDNSKNTLYLQMNSLRVEDTSMYFCARGPLLGGNFYSYLMDVWGQGTTVTVSS VL: AIQMTQSPSSLSASVGDRVTITCRASQGIRNGLGWYQQKPGKAPKLLIYTASSLQSGVPSRFSGSGSGTDFTLTISSLQPEDFATYYCLQDYNYPFSFGPGTKVDIK
Outgoing: y

Incoming: Decide: kon of H1H14486P (antibody, human IgG1, V domains shown, human IgG1 (H1H)) VH: QVQLVESGGGVVQPGRSLRLSCAASGFTFSNYGMHWVRQAPGKGLEWVAVIWYPGSNKFYTDSVEGRFTISRDNSKNTVYLQMDSLRAEDTAVYYCARGGALGVDYYYGMDVWGQGTTVTVSS VL: AIQMTQSPSSLSASVGDRVTLTCRASQGIRNDLGWYQQKPGKAPNFLIYSASSLQSGVPSRFSGSGSGTDFTLTISSLQPEDFATYYCLQNYNYPWTFGQGTKVEIK strictly below 300000 M⁻¹ s⁻¹?
Outgoing: n

Incoming: Lab note: kon threshold 300000 M⁻¹ s⁻¹. Does this binder come in strictly under it? H1H14493P (antibody, human IgG1, V domains shown, human IgG1 (H1H)) VH: QVQLVESGGGVVQPGRSLRLSCAASGFNFRSYGMHWVRQAPGKGLEWVAVIWYDGSNKYYADSVKGRFTISRDSSRDTLFLQMNSLRAGDTAVYYCARGGMLGRDYYYGMDVWGQGTTVTVSS VL: DIQMTQSPSSLSASVGDRVTITCRASQGIRNDLGWYQQKPGKAPKRLIYAASSLQSGVPSRFSGSGSGTEFTLTISSLQPEDFATYYCLQHNSYPNTFGQGTKLEIK
Outgoing: y

Incoming: Hi there! Is kon for H1H14520P (antibody, human IgG1, V domains shown, human IgG1 (H1H)) VH: QVQLVESGGGVVQPGRSLRLSCAASGFTFSSFGMHWVRQAPGKGLEWVAVISYDGRNRYYADSVKGRFTISRDNSKNTLYLQMNSLSAEDTAMFYCAKDGFGNSFDYWGQGTLVTVSS VL: DVVMTQSPLSLPVTLGQPASISCRSSQSLLYSDGNTYLTWFQQRPGQSPRRLIYKVSNRDSGVPDRFSGSGSGTDFTLTISRVEAEDVGIYYCMQGTHWPWTFGQGTKVEIK below 300000 M⁻¹ s⁻¹, do you know?
Outgoing: y

Incoming: Strictly below 300000 M⁻¹ s⁻¹ in kon? H1H14524P (antibody, human IgG1, V domains shown, human IgG1 (H1H)) VH: QVQLVESGGGVAQPGRSLSLSCAASGFTFSDYGMHWVRQAPGKGLEWVAVIWYAGSNKYYADSVKDRFTISRDNSKNTLYLQMRSLRVEDTAVYYCARGGELRLDYYSGLDVWGQGTTVTVSS VL: DIQMTQSPSSLSASVGDRVTVTCRASQGIRSDLGWYQQKPGKAPKRLIYAASSFQSGVPSRFSGSGSGTEFTLTISSLHPEDFATYYCLQSNNYPWTFGQGTKVEIK
Outgoing: n
